// kon lookup, one value per entry
- STUDY_TARGET: soluble FGFR2c receptor protein (human, UniProt P21802 148-377)
- Sequence (P21802 148-377): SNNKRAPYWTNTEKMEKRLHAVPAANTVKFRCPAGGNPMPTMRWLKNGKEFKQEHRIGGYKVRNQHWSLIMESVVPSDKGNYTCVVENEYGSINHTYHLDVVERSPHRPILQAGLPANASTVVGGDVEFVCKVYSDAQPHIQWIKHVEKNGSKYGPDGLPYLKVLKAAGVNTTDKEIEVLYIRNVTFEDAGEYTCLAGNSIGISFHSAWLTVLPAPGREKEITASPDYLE
- TEST_SUMMARY: BLI Octet RED96, antibody on anti-hIgG Fc tip
Give just the number in M⁻¹ s⁻¹; leave the unit off.

Recorded kon, per entry:
BINDER | RESULT_UNITS | kon
Vk3 combined with the VH of Ab15 (antibody, V domains shown, captured on anti-human IgG Fc tips) VH: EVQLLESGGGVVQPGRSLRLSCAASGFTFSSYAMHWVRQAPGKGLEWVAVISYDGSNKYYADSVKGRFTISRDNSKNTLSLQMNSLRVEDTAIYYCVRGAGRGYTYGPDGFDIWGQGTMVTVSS VL: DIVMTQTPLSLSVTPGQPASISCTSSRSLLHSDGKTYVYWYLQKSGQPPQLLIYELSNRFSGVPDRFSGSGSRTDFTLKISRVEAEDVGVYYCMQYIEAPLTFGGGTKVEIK | M⁻¹ s⁻¹ | 214000
Ab90 (antibody, human IgG2, kappa, V domains shown, format in the assays not spelled out) VH: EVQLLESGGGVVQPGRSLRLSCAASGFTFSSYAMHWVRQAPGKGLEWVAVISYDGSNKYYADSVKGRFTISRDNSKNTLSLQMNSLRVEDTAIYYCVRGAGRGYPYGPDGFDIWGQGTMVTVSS VL: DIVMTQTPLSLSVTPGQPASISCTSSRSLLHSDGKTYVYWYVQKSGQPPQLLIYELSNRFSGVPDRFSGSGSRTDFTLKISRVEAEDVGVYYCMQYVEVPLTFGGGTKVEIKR | M⁻¹ s⁻¹ | 218000

Query binder follows.
Fill in: kon of Vh2 combined with the VL of Ab15 (antibody, V domains shown, captured on anti-human IgG Fc tips) VH: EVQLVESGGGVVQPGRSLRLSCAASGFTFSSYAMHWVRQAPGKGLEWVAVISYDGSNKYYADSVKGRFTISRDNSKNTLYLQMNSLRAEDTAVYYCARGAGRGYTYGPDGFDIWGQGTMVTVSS VL: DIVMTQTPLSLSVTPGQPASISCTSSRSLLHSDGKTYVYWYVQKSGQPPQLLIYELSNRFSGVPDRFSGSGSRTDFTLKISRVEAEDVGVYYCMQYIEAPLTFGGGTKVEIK is ___
207000
